Target system: Tyrosine-protein kinase ZAP-70 (Homo sapiens)
Method summary: Inhibition of full-length ZAP70 (unknown origin) at 20 uM by radioactive ATP method
Activity calls are given as the source filed them. The rule behind the calls is not given here.
Metric name: inhibition

Recorded results for 5 compounds are shown here.
[
  {
    "Compound": "O=C1Nc2ccc(S(=O)(=O)Cc3ccc4ccccc4c3)c3cccc1c23",
    "inhibition": "inactive"
  },
  {
    "Compound": "O=C(c1ccc2[nH]cnc2c1)N1CCc2[nH]nc(-c3cccc(Cl)c3)c2C1",
    "inhibition": "inactive"
  },
  {
    "Compound": "O=C1NC(=O)N(c2cccc(F)c2)C(=O)/C1=C\\c1cccn1-c1ccccc1",
    "inhibition": "inactive"
  },
  {
    "Compound": "Cc1cc(/C=C2/C(=O)NN(c3ccccc3)C2=O)c(C)n1-c1cccc(O)c1",
    "inhibition": "43%"
  },
  {
    "Compound": "O=C1NN(c2ccc(F)cc2)C(=O)/C1=C\\c1cccc(OCc2ccccc2F)c1",
    "inhibition": "46%"
  }
]

Problem: Give the measured inhibition for "O=c1[nH]c2ccc(S(=O)(=O)NC3CC3)cc2c2ccccc12"
Result: inactive

Problem: Give the measured inhibition for Cc1ccc2[nH]c3c(c2c1)CCC1C3=NNC1c1ccccc1 (centres undefined)
Result: inactive

Problem: Give the measured inhibition for "Nc1ccc(C(=O)N2CCc3[nH]nc(-c4cc(F)cc(F)c4)c3C2)cn1"
Result: inactive

----------
Target system: Tyrosine-protein kinase SYK (Homo sapiens, UniProt P43405)
Method summary: Inhibition of SYK (unknown origin) by radioactive ATP method
Metric name: IC50 (µM)
Express your answer in µM, writing the number without its unit.

Problem: Give the measured IC50 for "O=C1NC(=S)N/C1=C1\C(=O)N(Cc2ccccc2Cl)c2ccccc21"
Result: 168

Problem: Give the measured IC50 for "O=C1Nc2ccccc2/C1=C(\c1ccccc1)c1nc2ccccc2[nH]1"
Result: 40

Problem: Give the measured IC50 for "O=C1Nc2ccc3c(oc4ccccc43)c2C1=NNc1ccncc1"
Result: 26

----------
Target system: Tyrosine-protein kinase SYK (Homo sapiens)
Method summary: Inhibition of SYK (unknown origin) at 20 uM by radioactive ATP method
For each entry below, report its inhibition value.
Returns: string containing the numeric result and its unit.

Problem: Quote Tyrosine-protein kinase SYK (Homo sapiens) inhibition for entry "O=C1NN(c2ccc(F)cc2)C(=O)/C1=C\c1cccc(OCc2ccccc2F)c1" .
Result: 16%

Problem: Quote Tyrosine-protein kinase SYK (Homo sapiens) inhibition for entry "Cc1cc(/C=C2/C(=O)NN(c3ccccc3)C2=O)c(C)n1-c1cccc(O)c1" .
Result: 16%

Problem: Quote Tyrosine-protein kinase SYK (Homo sapiens) inhibition for entry "O=C1NN(c2ccccc2)C(=O)/C1=C\c1cc(Cl)ccc1OCc1ccccc1" .
Result: 16%

Problem: Quote Tyrosine-protein kinase SYK (Homo sapiens) inhibition for entry "O=C1NN(c2ccccc2)C(=O)/C1=C/c1ccc(-c2ccccc2)o1" .
Result: 17%

----------
Metric name: pIC50
Scale for pIC50: -log10 of concentration given in mol/L; no unit attached.

Problem: Quote Tyrosine-protein kinase JAK2 (Homo sapiens, UniProt O60674) pIC50 for entry "COc1ccc(Nc2nc(N3CCOCC3)c3nc[nH]c3n2)cc1OC" .
Result: 6.96
